Recorded values, source PubChem BioAssay.

measurementDescription: VP16 transactivation inhibitors, counter-screen for SRC1 inhibitor project, cell-based, luminescence, high throughput (AID 588824)
measurementSetup: cell-based VP16 transactivation luciferase luminescence; at 3.6 µM
Activity calls are given as the source filed them. Rule as the data show it: active = inhibition above about 25%; inactive = the rest.
Respond with a class label; see active, inactive

Example results:
molecule	className
O=C(Nc1nc(-c2ccccn2)cs1)c1cccc(S(=O)(=O)N2CCOCC2)c1	inactive
CCN(C(=S)NC(=O)C1CC1)c1ccccc1	inactive
O=C(CSCC(=O)Nc1ccccc1)N/N=C/c1c(O)ccc2ccccc12	active

Prompt: // return assay outcome for Nc1nc(/C=C/c2cccnc2)nc(-c2ccccc2O)n1
Completion: inactive

Prompt: // return assay outcome for CC(=O)N1CCN(c2ncnc3ccccc23)CC1
Completion: active

----------
systemTested: Nuclear receptor subfamily 5 group A member 2 (Homo sapiens)
measurementDescription: LRH-1 (NR5A2) inverse agonists, retest, confirmation, cell-based, luminescence (AID 651613);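 also: HEK293T cells co-transfected with LRH-1 and StAR promoter luciferase reporter; 0% = vehicle wells and 100% = parental cells lacking receptor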
measurementSetup: cell-based LRH-1 luciferase reporter, inverse agonism; at 3.6 µM; hits give high values
Please respond with reported inhibition for every item in the list.
Numbers only, in %.

Examples with answers:
>>> df
                                   molecule  testresult
0     Cc1c(Cl)cccc1NC(=O)CS(=O)(=O)c1ccccc1        55.1
1     Cc1nc2c(-c3ccccc3)cnn2c(N)c1-c1ccccc1        -128
2          Cc1cccc(NC(=O)COC(=O)c2cccs2)c1C        52.7
3  Cc1ccc2[nH]c3c(c2c1)CCCC3NC(=O)CCl (stereo not drawn)         106
4     Cc1c(C#N)c(O)n(CCO)c(=O)c1N=Nc1ccccc1        44.4
5  CC(=O)Nc1cc(-c2ccc(F)cc2)cn2c(-c3ccc(S(C)(=O)=O)cc3)cnc12        51.4

State recorded inhibition for all listed molecules.
1. COc1ccccc1-c1nnc(Sc2nc([N+](=O)[O-])nn2C)o1
2. COc1ccc(Nc2ncnc3ccc(Br)cc23)c(OC)c1

Completion:
62
47.3

State recorded inhibition for all listed molecules.
1. COc1ccc(-c2cc(C(F)F)n3ncc(C(=O)N4CCc5ccccc5C4)c3n2)cc1
2. Cn1cnc([N+](=O)[O-])c1Oc1ccc2ccccc2c1
3. CCOc1ccc(NC(=O)CSc2nc3cccnc3n2CCOC)cc1

Completion:
58.3
55.3
64.4

State recorded inhibition for all listed molecules.
1. C=CC[n+]1c(/C=C2\C=Cc3cc(C)ccc3N2CC)ccc2ccccc21
2. O=C(Nc1ccc(N2CCOCC2)c(Cl)c1)c1ccc([N+](=O)[O-])o1
3. CCCOc1ccc(Cn2cnc3ccccc32)cc1
4. COc1ccc(OC)c(-n2c(-c3ccc(S(C)(=O)=O)cc3)cc(C=O)c2C)c1
5. CCCNC1=C(N(C(C)=O)c2cccc(F)c2)C(=O)c2ccccc2C1=O
6. CNC(=O)c1cccc(NC(=O)c2cc(-c3ccccc3)nc3c2cnn3C(C)C)c1
7. COc1ccc(-c2c[n+]3c(n2-c2ccc(C)cc2)CCCCC3)cc1

Completion:
1. 110
2. 9.33
3. 54.6
4. 48.2
5. 68.8
6. 51.7
7. 105

State recorded inhibition for all listed molecules.
1. O=C(Nc1ccc([N+](=O)[O-])cc1)c1cccc([N+](=O)[O-])c1
2. CCOc1cc(/C=N/n2nnnc2N)ccc1OCc1c(C)no[n+]1[O-]
3. O=C1/C(=C/c2ccccc2)CN(C(=O)CCN2CCOCC2)C/C1=C\c1ccccc1
4. Cc1cc(NC(=O)C(Cl)Cl)cc2c1OCO2
5. COc1ccc(CNC(=O)c2cccc3c(-c4cccnc4)coc23)cc1OC

Completion:
65.6
53.2
44.3
59.2
59.9
